All figures here come from patent US11209437B2.

# assay-procedure: Viscosity responsiveness: fluorescence emission spectra of probes in glycerol and methanol
# Assay type: physicochemical
# condition-set: excited at maximum excitation wavelength of each probe
# Description: […]
# strict inequality: Emission wavelength < 600 nm yields TRUE, everything else yields FALSE

molecule: CN(CCOC(=O)NCc1ccc(COc2nccc(N)n2)cc1)c1cc2c(s1)-c1sc(/C=C(/C#N)c3nc4ccccc4s3)cc1C2(C)C
label-class: FALSE
//
molecule: CN(CCOC(=O)NCc1ccc(COc2nccc(N)n2)cc1)c1cc2c(s1)-c1sc(/C=C(/C#N)c3nc4ccccc4o3)cc1C2(C)C
label-class: FALSE
//
molecule: CN(CCOC(=O)NCc1ccc(COc2nccc(N)n2)cc1)c1ccc(-c2ccc(/C=C(\C#N)C(=O)OC(C)(C)C)s2)s1
label-class: FALSE
//
molecule: COCCNC(=O)/C(C#N)=C/c1cc2cc3sc(N(C)CCOC(=O)NCc4ccc(COc5nc(N)nc6[nH]cnc56)cc4)cc3cc2s1
label-class: FALSE
//
molecule: CN(CCOC(=O)NCc1ccc(COc2nccc(N)n2)cc1)c1ccc(/C=C(\C#N)c2nc3ccccc3s2)cc1
label-class: TRUE
//
molecule: CN(CCOC(=O)NCc1ccc(COc2nc(N)nc3[nH]cnc23)cc1)c1cc2c(s1)-c1sc(C=C(C#N)C#N)cc1[Si]2(C)C
label-class: FALSE
//
molecule: CN1C(=O)/C(=C/c2ccc(N(C)CCOC(=O)NCc3ccc(COc4nccc(N)n4)cc3)cc2)N=C1/C=C/c1ccccc1
label-class: TRUE
//
molecule: CN(CCOC(=O)NCc1ccc(COc2nc(N)nc3[nH]cnc23)cc1)c1ccc(C2=C(C#N)C(=C(C#N)C#N)OC2(C)C)cc1
label-class: TRUE
//
molecule: N#C/C(=C\c1cc2c3c(c1)CCCN3CCC2)C(=O)NCc1ccc(COc2nc(N)nc3[nH]cnc23)cc1 [Reference Probe BG-CCVJ, reference compound]
label-class: TRUE
//
molecule: CN(C)c1ccc(-c2ccc(/C=C(\C#N)C(=O)NCc3ccc(COc4nc(N)nc5[nH]cnc45)cc3)s2)s1 [Reference Probe 119, reference compound]
label-class: FALSE
//
molecule: CN(CCOC(=O)NCc1ccc(COc2nc(N)nc3[nH]cnc23)cc1)c1ccc(/C=C(\C#N)c2nc3ccccc3s2)cc1
label-class: TRUE
//
molecule: CN(CCOC(=O)NCc1ccc(COc2nc(N)nc3[nH]cnc23)cc1)c1ccc2cc(/C=C(\C#N)C(=O)O)sc2c1
label-class: TRUE
//
molecule: COCCNC(=O)/C(C#N)=C/c1cc2cc3sc(N(C)CCOC(=O)NCc4ccc(COc5nccc(N)n5)cc4)cc3cc2s1
label-class: FALSE
